Please go through the items and note down their growth inhibition.
assay info: NCI Yeast Anticancer Drug Screen. Data for the bub3 strain (AID 167)
details: S. cerevisiae bub3 mutant strain, at 50.0 µM, hits give high values
Compounds without any hit were thinned out: in the full panel of roughly 79,000, 15% have a hit.
Numbers only, in %.

Would you mind listing growth inhibition for each of the following compounds?
1. O=C1NCC2Cc3ccccc3C(c3ccccc3)=C12 (stereo unspecified)
2. O=c1c(Cl)c(N2CCCCC2)cnn1-c1ccccc1
3. C1=C(c2ccccc2)Cc2ccccc21
4. O=C(Nc1ccc(Br)cc1)Oc1ccc(Cl)cc1C(=O)c1ccccc1
5. CC(=O)NC1C(OC2C(CO)OC(OCC3OC(n4ccc(N)nc4=O)C(O)C3O)C(NC(C)=O)C2O)OC(CO)C(O)C1O (stereo unspecified)
6. c1ccc(-c2cc3ccccc3c(-c3ccccc3)c2-c2ccccc2)cc1

Key:
-3.9
14.1
15.4
41.8
-3.45
-2.65

----------
assay info: NCI Yeast Anticancer Drug Screen. Data for the bub3 strain (AID 167)
details: S. cerevisiae bub3 mutant strain, at 50.0 µM, hits give high values
Compounds without any hit were thinned out: in the full panel of roughly 79,000, 15% have a hit. Activity calls are given as the source filed them. Cut-off read from the data, not from the text of the source: active = growth inhibition above about 70%; inactive = the rest.
observable: growth inhibition

Exercise: Return reported growth inhibition; argument: Cc1cccc(C)c1NC(=O)Nc1cccc(C(F)(F)F)c1
Key: -8.25% (inactive)

Exercise: Suppose we examine the compound O=C(O)CCSC1=NCCN1 ; what growth inhibition value has been reported?
Key: -42.9% (inactive)

Exercise: For CCOc1ccccc1N1C(=O)C(=O)C(c2nc3ccccc3o2)C(=O)C1=O , what is its reported growth inhibition?
Key: 2.55% (inactive)

Exercise: Reported growth inhibition for O=C(Nc1cccc(O)c1)Nc1ccc(Cl)cc1[N+](=O)[O-] : what is it?
Key: 83% (active)

Exercise: Quick check: growth inhibition of O=Cc1cc(C=O)c2ccc(=O)[nH]c2n1 ?
Key: -1.25% (inactive)

Exercise: // returns reported growth inhibition for input COC(=O)C1=NC(=S)N=C(C(=O)OC)C1(C)C(=O)c1ccccc1
Key: 3.75% (inactive)

Exercise: For NC(=O)c1n[nH]n(-c2ccccc2)c1=O , what is its reported growth inhibition?
Key: -19.9% (inactive)

Exercise: I am curious: what growth inhibition value has been reported for O=C(OCC1CCCO1)c1ccccc1Cl (configuration not stated) ?
Key: 7.2% (inactive)

For each entry beneath this line, provide reported growth inhibition.
1. O=C1C(=O)C(CCc2ccccc2)C(=O)/C1=C\c1ccccc1 (configuration not stated)
2. COC(=O)c1cc2ccc(O)c(O)c2cn1
3. CC(=O)Oc1c(C)cc2c(c1C)C(C)(C)CN2C(=O)C(C)(C)C
4. CC1(C)NN=C([N+](=O)[O-])C1c1ccccc1 (configuration not stated)

Key:
["-6.55% (inactive)", "62.4% (inactive)", "-1.3% (inactive)", "-11% (inactive)"]

----------
assay info: NCI Yeast Anticancer Drug Screen. Data for the rad50 strain (AID 155);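 note: 0% = growth of vehicle-only cultures of the same strain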
details: S. cerevisiae rad50 strain growth inhibition; at 50.0 µM; hits give high values
About 79,000 compounds went through this panel and 15% of them were active in at least one assay; those are over-represented in the sample as a whole.
Is growth inhibition at least 10%? Then MET. If not, NOT MET.

Known results for compounds:
Exercise: # check: growth inhibition of O=C(/C=C\c1ccccc1)OCc1ccccc1CN1CCCCC1 is greater than or equal to 10%
Key: MET

Exercise: Kindly determine if growth inhibition recorded for COc1ccc(-n2c(C)c(COC(C)=O)c(COC(C)=O)c2C)cc1 is above or exactly 10%.
Key: NOT MET

Exercise: Test whether the compound CCOC(=O)/C(=C\c1cc(C)c(OC(C)=O)c(OC)c1)NC(=O)c1ccccc1 records growth inhibition of 10% or higher.
Key: NOT MET

Exercise: Please check the record CCOC(=O)C1=NC(c2ccccc2)N(c2ccccc2)C1c1ccccc1 (stereo not given) and state if its growth inhibition is at or above 10%.
Key: NOT MET

Exercise: Assess whether reported growth inhibition for CS(=O)(=O)Nc1ccc(NS(C)(=O)=O)cc1 sits at 10% or higher.
Key: NOT MET

Exercise: Record CCOC(=O)CCOc1ccccc1 ; criterion: growth inhibition no lower than 10%. Met?
Key: NOT MET

Exercise: Given Cc1ccc(C(=O)O)c(O)c1 , state whether its growth inhibition is at least 10%.
Key: MET

Exercise: Given CC(=O)OC1CCC2(C)C(=CCC3C2CCC2(C)C(/C(C)=N/NC(N)=O)CCC32)C1 (stereo not given) , state whether its growth inhibition is at least 10%.
Key: MET

Others:
Exercise: Reported growth inhibition at or above 10%? Cc1ccc(C2=C(Cl)C(=O)C(c3ccc(C)cc3)=C(Cl)C2=O)cc1
Key: NOT MET

Exercise: Please check the record Cc1c[n+]([O-])cc(C)c1N=Nc1ccc(N(C)C)cc1 and state if its growth inhibition is at or above 10%.
Key: NOT MET

----------
assay info: NCI Yeast Anticancer Drug Screen. Data for the bub3 strain (AID 167)
details: S. cerevisiae bub3 mutant strain, at 50.0 µM, hits give high values
Method: Growth inhibition of yeast strains with defined genetic alterations is measured as a screen for potential anti-cancer activity. Selected strains with alterations in DNA damage repair or cell cycle control were exposed to compounds and growth inhibition was measured relative to vehicle treated controls. The strain used in this assay is bub3
About 79,000 compounds went through this panel and 15% of them were active in at least one assay; those are over-represented in the sample as a whole.
observable: growth inhibition (%)
Give bare numbers, in %.

Exercise: I'd like to know its growth inhibition. The molecule in question is C1CCN(c2nn[nH]n2)CC1
Key: 12.4

Exercise: Report growth inhibition for Cc1ccc2cccc3c2c1CC1(C3=O)S(=O)(=O)OCCOS1(=O)=O please.
Key: 39

Exercise: Given the molecule [N-]=[N+]=Nc1c(Cc2ccccc2)c(Cl)nc2ccccc12 , what is its reported growth inhibition?
Key: 65

Exercise: Which growth inhibition is reported for this molecule? COc1ccc(C2=Nn3c(nc4sc(-c5ccccc5)cc4c3=O)SC2)cc1
Key: -8.05

Exercise: Return reported growth inhibition; argument: O=C(O)CCC(=O)CCc1ccccc1C(=O)O
Key: -23.1

For the next question, use this molecule.
Exercise: What does the data say about its growth inhibition? Entry: CN1CCN(CC(=O)N2c3ccccc3Sc3cc4ccccc4cc32)CC1
Key: -13.7

----------
Record form. Attribute: growth inhibition. Fill in for each entry.
assay info: NCI Yeast Anticancer Drug Screen. Data for the rad50 strain (AID 155);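 note: 0% = growth of vehicle-only cultures of the same strain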
details: S. cerevisiae rad50 strain growth inhibition; at 50.0 µM; hits give high values
Compounds without any hit were thinned out: in the full panel of roughly 79,000, 15% have a hit.
Numbers only, in %.

The following molecules have reported results that may help.
Exercise: Requested field: growth inhibition. Item: Fc1ccc(C2=NOC3COC4C=CC=CC4OCC23)cc1 (centres undefined)
Key: -29.2

Exercise: Can you look up the measured growth inhibition of O=C(NCc1ccccc1)c1ccc([N+](=O)[O-])cc1 for me?
Key: -7.2

Exercise: Looking for the measured growth inhibition of Cn1c(=O)c2c(-c3ccccc3)onc2n(C)c1=O , can you help?
Key: 16.3

Exercise: GET /values?readout=growth inhibition&item= NN1CC(=O)N(c2ccccc2)CC1=O
Key: 0.5

Exercise: What value of growth inhibition has been reported for the following molecule? O=P(CCC(CC(F)(F)C(F)(F)C(F)(F)C(F)(F)C(F)(F)C(F)(F)C(F)(F)F)P(=O)(N1CC1)N1CC1)(N1CC1)N1CC1 (centres undefined)
Key: 5.1

Exercise: Any idea what its growth inhibition is? The molecule is COc1ccc(O)c(/C=N/NC(N)=S)c1
Key: 23.8

Exercise: Name the reported growth inhibition value associated with the molecule CC(C)(C)NC(=O)NCc1cccc(Cl)c1
Key: 0.25

Exercise: Requested field: growth inhibition. Item: CCOC(=O)c1cc2cc(C)cc(C(=O)c3ccc([N+](=O)[O-])cc3)c2[nH]1
Key: 15.1

Exercise: Bench note: what growth inhibition did Cc1ccccc1NC(=O)C(=O)C(C#N)c1ccc(Cl)cc1Cl (centres undefined) show?
Key: -19.3

Exercise: Please look up its growth inhibition: COc1ccc(S(=O)(=O)N(CC(=O)O)c2ccccc2)cc1
Key: -19.3

Hey, can you go through the list below and give me growth inhibition for every item?
1. O=[N+]([O-])c1ccccc1S(=O)(=O)c1ccccc1[N+](=O)[O-]
2. Cc1ccc(/C=C/C(=O)c2sc(C(N)=S)nc2C)cc1
3. CC(=O)c1ccccc1C(C)c1ccc(C)c2ccccc12 (centres undefined)

Key:
1. -26.4
2. 35.9
3. -1.65

Each molecule below has a reported value. Please supply its growth inhibition.
1. CN1COc2c(ccc3c4c(ccc23)CN(C)CO4)C1
2. CN(C)C(=O)C1C2CCCC(CC2)C1C(=O)N(C)C (centres undefined)
3. OC1c2ccccc2C(O)c2c1ccc1c2CN(Cc2ccccc2)CC1 (centres undefined)
4. O=C1Nc2ccccc2C12OCCS2 (centres undefined)
5. C=C(C)Cc1c(C)c(Cl)cc(Cl)c1OC(=O)Nc1ccccc1
6. Cc1c(N2CCCC2)cc2c(c1-n1cccc1)C(C)(C)CC2(C)C
7. Cc1cc(C2(O)CCCc3ccccc32)[n+]([O-])cc1C (centres undefined)
8. NC(=O)CN(CC(N)=O)C(N)=O

Key:
[3.15, 13.7, 5.05, -4.1, 31.8, -21, -17.3, -14.6]
